Entries and their pIC50
Biological target: Recombinant human HSD17B13 (Homo sapiens (Human), UniProt Q7Z5P4)
Sequence (Q7Z5P4 20-300): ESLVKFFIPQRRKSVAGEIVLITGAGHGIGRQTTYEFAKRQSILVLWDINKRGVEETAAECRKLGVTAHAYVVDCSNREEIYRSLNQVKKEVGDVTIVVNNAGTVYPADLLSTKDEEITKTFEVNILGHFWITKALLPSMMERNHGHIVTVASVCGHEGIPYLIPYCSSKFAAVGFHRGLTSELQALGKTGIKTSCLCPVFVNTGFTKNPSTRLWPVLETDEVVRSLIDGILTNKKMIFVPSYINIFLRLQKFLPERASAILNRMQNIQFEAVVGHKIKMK
Assay: HSD17B13 rapid-fire mass spectrometry assay (RF/MS assay)
Details: inhibition of HSD17B13; LTB4 10 μM, NAD+ 0.5 mM, RT 3 h; IC50 ranges A-E
pIC50: −log10 of the molar value.

Check out these entries, answers already filled in.
{"MOLECULE": "COc1cc(C(=O)O)ccc1NS(=O)(=O)c1csc(C#CC2CC2)n1 [Example 214]", "MEASURE": "pIC50", "RESULT VALUE": "> 7.00"}
{"MOLECULE": "CC[C@H]1CC[C@H](c2ccc(-c3ncc(S(=O)(=O)Nc4cc(F)c(C(=O)O)cc4OC)s3)cc2)CC1 [Example 642]", "MEASURE": "pIC50", "RESULT VALUE": "6.30 to 7.00"}
{"MOLECULE": "COc1cc(C(=O)O)c(F)cc1NS(=O)(=O)c1csc(-c2ccc(-c3cn[nH]c3)cc2)n1 [Example 644]", "MEASURE": "pIC50", "RESULT VALUE": "6.30 to 7.00"}
{"MOLECULE": "COc1cc(C(=O)O)c(F)cc1NS(=O)(=O)c1cnc(-c2ccc(C3=CC=C(F)CC3)cc2)s1 [Example 726]", "MEASURE": "pIC50", "RESULT VALUE": "6.30 to 7.00"}
{"MOLECULE": "COc1cc(C(=O)O)c(F)cc1NS(=O)(=O)c1csc(-c2ccc([C@H]3CC[C@H](C(F)(F)F)CC3)cc2C(F)(F)F)n1 [Example 607]", "MEASURE": "pIC50", "RESULT VALUE": "> 7.00"}

Exercise: Look up pIC50: COc1cc(C(=O)O)c(F)cc1NS(=O)(=O)c1csc(-c2ccc(-c3ccccc3O)cc2)n1 [Example 531]
Key: 6.30 to 7.00

Exercise: Try COc1cc(C(=O)O)c(F)cc1NS(=O)(=O)c1csc(-c2ccc(C3=CCC(C)(C)CC3)c(F)c2C)n1 [Example 562] next.
Key: 6.30 to 7.00

Exercise: And the next one, COc1cc(C(=O)O)ccc1NS(=O)(=O)c1ccc(C#Cc2ccccc2)s1 [Example 168] ?
Key: 6.30 to 7.00

Exercise: What would you report for COc1ccc(-c2ccc(-c3ccc(S(=O)(=O)Nc4ccc(C(=O)O)cc4OC)s3)cc2)cc1 [Example 206] ?
Key: 6.30 to 7.00

Exercise: Try this molecule too: COc1cc(C(=O)O)ccc1NS(=O)(=O)c1csc(-c2ccc([C@H]3CC[C@H](C(F)(F)F)CC3)cc2)n1 [Example 506]
Key: > 7.00

Exercise: Another molecule: COc1cc(C(=O)O)ccc1NS(=O)(=O)c1cnc(-c2ccc(C3=CCC(c4ccccc4)CC3)cc2)s1 (stereo not drawn) [Example 451]
Key: 6.30 to 7.00

Exercise: Repeat for the following molecule: COc1cc(C(=O)O)ccc1NS(=O)(=O)c1csc(-c2ccc(F)cc2)n1 [Example 749]
Key: 6.30 to 7.00

Exercise: Same lookup for COc1cc(C(=O)O)c(F)cc1NS(=O)(=O)c1cccc(-c2ccc([C@H]3CC[C@H](C(C)(C)C)CC3)cc2)c1F [Example 612] , please.
Key: > 7.00

Exercise: Now try COc1cc(C(=O)O)c(F)cc1NS(=O)(=O)c1csc(-c2ccc(C3CCC(C)(C)CC3)cc2C(F)F)n1 [Example 591] .
Key: > 7.00

Exercise: Another: COc1cc(C(=O)O)c(F)cc1NS(=O)(=O)c1csc(-c2ccc([C@H]3CC[C@@H](C(C)C)CC3)cc2C(F)(F)F)n1 [Example 619]
Key: 6.30 to 7.00
